# System: OVCAR-5 ovarian
# Test name: NCI tumour cell line growth inhibition, 48 h
Item-by-item account of TGI

Lookup result for O=C1NCC(NC(=O)C(F)(F)F)c2c(Br)sc(Br)c21 (stereo unspecified) ; measured TGI: > 100 µM

Further cases:
Lookup result for N=C(N)c1ccc(-c2ccc(-c3cccs3)s2)cc1 ; measured TGI: 2.68 µM

Lookup result for CC(C)(C)c1ccc2c(c1)S(=O)(=O)Nc1ccc(Cl)cc1NS(=O)(=O)c1cc(C(C)(C)C)ccc1OCCOCCOCCO2 ; measured TGI: > 100 µM

Lookup result for O=C(/C(=C\c1c(-c2ccccc2)[nH]c2ccccc12)S(=O)(=O)c1ccccc1)c1ccccc1 ; measured TGI: > 100 µM

Lookup result for C(=Nc1ccc(-c2nc3ccccc3o2)cc1)c1ccco1 ; measured TGI: > 100 µM

Lookup result for CC(=O)O/N=C/c1c2ccccc2cc2ccccc12 ; measured TGI: > 100 µM
